Would you mind telling me the reported CC50 at 48 h of each entry?
assay.remarks: Cytotoxicity against mouse J774A.1 cells after 48 hrs by MTT assay
Assay type: cell-based, J774.A1
One number for each entry, in µM.

• CCc1ccc(-n2cc(COC(=O)c3c(C)nc4ccc(Cl)cc4c3-c3ccccc3)nn2)cc1 = 99
• Cc1ccc(-n2cc(COC(=O)c3c(C)nc4ccc(Cl)cc4c3-c3ccccc3)nn2)cc1F = 34
• Cc1ccc(Cn2cc(COC(=O)c3c(C)nc4ccccc4c3-c3ccccc3)nn2)cc1 = 41
• Cc1ccc(-n2cc(COC(=O)c3c(C)nc4ccccc4c3-c3ccccc3)nn2)cc1F = 36

For each of the molecules below, state CC50 at 48 h.
1. Cc1nc2ccc(Cl)cc2c(-c2ccccc2)c1C(=O)OCc1cn(Cc2ccc([N+](=O)[O-])cc2)nn1
2. Cc1nc2ccc(Cl)cc2c(-c2ccccc2)c1C(=O)OCc1cn(Cc2ccccc2)nn1
3. COc1cccc(Cn2cc(COC(=O)c3c(C)nc4ccccc4c3-c3ccccc3)nn2)c1
4. Cc1ccc(-n2cc(COC(=O)c3c(C)nc4ccccc4c3-c3ccccc3)nn2)cc1
5. CCCCCCCCCCCCCCCCOP(=O)([O-])OCC[N+](C)(C)C
6. Cc1nc2ccccc2c(-c2ccccc2)c1C(=O)OCc1cn(Cc2ccc([N+](=O)[O-])cc2)nn1

[75, 35, 36, 39, 56, 42]

###

System: Leishmania donovani
assay.remarks: Antileishmanial activity against Leishmania donovani MHOM/IN/80/Dd8 amastigotes harboring luciferase reporter gene infected in mouse J774A.1 cells after 72 hrs by luminescence assay
Assay type: functional, organism-based
condition.notes: Leishmania donovani, MHOM/IN/80/Dd8, J774.A1, 72 h; read-out: IC50
pIC50: −log10 of the molar value.
Tick Y if pIC50 is 5 or greater. Tick N if pIC50 is less than 5.

Solved entries:
• Cc1nc2ccccc2c(-c2ccccc2)c1C(=O)OCc1cn(Cc2ccc([N+](=O)[O-])cc2)nn1 = N
• Cc1ccc(-n2cc(COC(=O)c3c(C)nc4ccccc4c3-c3ccccc3)nn2)cc1F = N
• Cc1ccc(-n2cc(COC(=O)c3c(C)nc4ccccc4c3-c3ccccc3)nn2)cc1 = Y
• Cc1nc2ccc(Cl)cc2c(-c2ccccc2)c1C(=O)OCc1cn(Cc2ccc([N+](=O)[O-])cc2)nn1 = N
• COc1cccc(Cn2cc(COC(=O)c3c(C)nc4ccccc4c3-c3ccccc3)nn2)c1 = N
• Cc1ccc(Cn2cc(COC(=O)c3c(C)nc4ccccc4c3-c3ccccc3)nn2)cc1 = N

Quick check: does "CCc1ccc(-n2cc(COC(=O)c3c(C)nc4ccc(Cl)cc4c3-c3ccccc3)nn2)cc1" have pIC50 greater than or equal to 5? N

Quick check: does "Cc1nc2ccc(Cl)cc2c(-c2ccccc2)c1C(=O)OCc1cn(Cc2ccccc2)nn1" have pIC50 greater than or equal to 5? Y
